study-target: SpsB (Staphylococcus aureus signal peptidase) (Staphylococcus aureus)
Construct: This assay uses a suspension of Staphylococcus aureus cells as a source of SpsB instead of recombinant SpsB protein; endogenous in cells; host or cells: S. aureus, USA300 background, overexpressing SpsB (whole-cell suspension from frozen pellets)
Sequence (P0A070 whole entry): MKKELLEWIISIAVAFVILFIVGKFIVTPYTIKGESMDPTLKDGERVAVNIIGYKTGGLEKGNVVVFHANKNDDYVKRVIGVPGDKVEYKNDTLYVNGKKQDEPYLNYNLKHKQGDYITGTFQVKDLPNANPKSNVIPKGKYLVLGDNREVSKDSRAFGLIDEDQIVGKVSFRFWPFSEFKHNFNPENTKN
test-summary: cell-based
Assay type: biochemical
run-conditions: SpsB IC50, whole-cell S. aureus (USA300 background, overexpressing SpsB) as SpsB source; fluorogenic peptide substrate, kinetic read 30 min
The reader will find reported pIC50 values listed item by item below.
Reminder that pIC50 means the negative base-10 logarithm of the concentration expressed in mol/L.

Below, 4 compounds whose answers are already recorded.
Cc1cc(-c2cnc(CC(C)C)nc2)ccc1C(=O)N[C@@H](CCN)C(=O)N(C)[C@@H]1C(=O)N[C@@H](C)C(=O)N[C@H](C(=O)NCC#N)Cc2ccc(OCCN)c(c2)-c2cc1ccc2OCCN = 8.74
CCCCCCCCC(O)C(=O)NC(CO)C(=O)N(C)C1C(=O)NC(C)C(=O)NC(C(=O)NCC#N)Cc2ccc(OCCN)c(c2)-c2cc1ccc2OCCN (single isomer, unassigned) [Compound 393-P1] = 8.23
CCCCCCCCc1ccc(C(=O)N[C@@H](CCCN)C(=O)N(C)[C@@H]2C(=O)N[C@@H](C)C(=O)N[C@H](C(=O)NCC#N)Cc3ccc(OC)c(c3)-c3cc2ccc3OC)c(OC)c1 = 7.41
CCCCCCCOc1ccc(C(=O)N[C@@H](CCN)C(=O)N(C)[C@@H]2C(=O)N[C@@H](C)C(=O)N[C@H](C(=O)NCC#N)Cc3ccc(OCCN)c(c3)-c3cc2ccc3OCCN)c(C(F)(F)F)c1 = 9.22

Next up:
Memo: `Cc1cc(-c2ccc(CC(C)C)cc2)ccc1C(=O)N[C@@H](CCO)C(=O)N(C)[C@@H]1C(=O)N[C@@H](C)C(=O)N[C@H](C(=O)NCC#N)Cc2ccc(OCCN)c(c2)-c2cc1ccc2OCCN` , reported pIC50: 8.34

Values from patent US20180327367A1
